Would you kindly list half-life for each of these compounds?
assay: Mouse PK test of peptides (intravenous and oral administration); conditions: male, C57BL/6J, in vivo, po, 20 mg/kg
Positions of bridges follow the written chain, without caps; N, C: chain ends. Non-standard residues stand in square brackets, D forms with d. Residues, ends and D or L forms follow the SMILES beside them. *: point of attachment. NMeF = CN[C@@H](Cc1ccccc1)C(=O)O; NMeI = CC[C@H](C)[C@H](NC)C(=O)O; NMeL = CN[C@@H](CC(C)C)C(=O)O; NMeA = CN[C@@H](C)C(=O)O; Piperidide = C1CCN(*)CC1; NPrGly = CCCNCC(=O)O; Sar = CNCC(=O)O; tBu = CC(C)(C)*
Numbers only, in h.

These solved cases illustrate the format of a correct answer.
compound	half-life (h)
CC[C@H](C)[C@H](NC(=O)[C@@H]1CCCN1C(=O)[C@@H]1CC(=O)N[C@@H](C)C(=O)N[C@@H](CC(C)C)C(=O)N(C)[C@@H]([C@@H](C)CC)C(=O)N[C@@H](C(C)C)C(=O)N(C)[C@@H](Cc2ccccc2)C(=O)N[C@@H](CC(C)C)C(=O)N(C)[C@@H](Cc2ccccc2)C(=O)N1)C(=O)N1CCCCC1 [DP-965] (AL[NMeI]V[NMeF]L[NMeF]DPI-Piperidide; lactam N-8)	2.99
CCCN1CC(=O)N(C)[C@@H](CC(C)C)C(=O)N[C@@H](COC(C)(C)C)C(=O)N(C)[C@@H](CC(C)C)C(=O)N[C@H](C(=O)N2CCCCC2)CC(=O)N[C@H](C)C(=O)N(C)[C@@H](C)C(=O)N(C)[C@@H](Cc2ccccc2)C(=O)N(C)[C@@H](CC(C)C)C(=O)N[C@@H]([C@@H](C)O)C1=O [DP-547] ([dA][NMeA][NMeF][NMeL]T[NPrGly][NMeL]S(tBu)[NMeL]D-Piperidide; lactam N-10)	1.84
CCCN1CC(=O)N(C)[C@@H](CC(C)C)C(=O)N[C@@H]([C@@H](C)O)C(=O)N(C)[C@@H](C)C(=O)N(C)[C@@H](CC(C)C)C(=O)N(C)[C@@H]([C@@H](C)CC)C(=O)N[C@@H](COC(C)(C)C)C(=O)N[C@H](C(=O)N2CCCCC2)CC(=O)N(C)[C@@H](C)C(=O)N(C)[C@@H](Cc2ccccc2)C1=O [DP-540] ([NMeA][NMeF][NPrGly][NMeL]T[NMeA][NMeL][NMeI]S(tBu)D-Piperidide; lactam N-10)	3.11

Dear colleague, I am looking for the recorded half-life of the following compound: CC[C@H](C)[C@H]1C(=O)N[C@H](C(=O)N2CCCCC2)CC(=O)N[C@H](C(C)C)C(=O)N(C)[C@@H](Cc2ccccc2)C(=O)N(C)[C@@H](CC(C)C)C(=O)N[C@@H]([C@@H](C)O)C(=O)N(C)CC(=O)N(C)[C@@H](CC(C)C)C(=O)N[C@@H](COC(C)(C)C)C(=O)N1C [DP-265] ([dV][NMeF][NMeL]T[Sar][NMeL]S(tBu)[NMeI]D-Piperidide; lactam N-9)
1.96
